Experiment: malaria lysate leucine aminopeptidase inhibition – cell lysate, fluorescence, Plasmodium falciparum lysate, powder samples, late-stage follow-up (AID 492973)
Details: P. falciparum cell lysate, H-Leu-NHMec fluorescence; at 5 µM
Activity calls are given as the source filed them.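 The calls were made as follows: active = inhibition above 50% of the enzyme in parasite cell lysate; inactive = the rest.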
Could you please pick one outcome from this set? TRUE for active, FALSE for inactive

Lookup: Hey, what did the test say about "CCOc1cccc(-c2cc(=O)[nH][nH]2)c1" ?
Found: FALSE

Lookup: Hey, what did the test say about "COC(=O)c1cccc(NC(=O)CSc2nc(C)cc(=O)[nH]2)c1" ?
Found: FALSE

Lookup: Hey, what did the test say about Cc1ccc(Nc2nnc(SC3CCOC3=O)s2)cc1 (stereo not given) ?
Found: TRUE

Lookup: Hey, what did the test say about "CCCCc1c(O)nc(SCC(=O)Nc2ccc3c(c2)CCC3)[nH]c1=O" ?
Found: FALSE

Lookup: Hey, what did the test say about "Cc1cc(C(=O)COC(=O)c2ccc[nH]c2=O)c(C)n1-c1ccc(F)cc1" ?
Found: FALSE

Lookup: Hey, what did the test say about "O=C(Nc1ccc(Cl)cc1)Nc1cccc(C(=O)O)c1" ?
Found: TRUE

Lookup: Hey, what did the test say about "C=CCn1c(SCC(=O)Nc2cccc3ccccc23)nc(O)c(CC)c1=O" ?
Found: FALSE

Lookup: Hey, what did the test say about Cc1ccc(-c2c(C)sc(NC(=O)[C@@H]3C4CCC(O4)[C@@H]3C(=O)O)c2C(=O)OC(C)C)cc1 (stereo not given in full) ?
Found: FALSE

Lookup: Hey, what did the test say about "Cc1ccc(Nc2nnc(SCc3cc(=O)n4ccsc4n3)s2)c(C)c1" ?
Found: FALSE

Lookup: Hey, what did the test say about "COc1cc(NC(=O)CSc2nc3ccccc3cc2C)c(C(=O)O)cc1OC" ?
Found: TRUE

Lookup: Hey, what did the test say about "S=c1nc(-c2ccccc2Br)[nH][nH]1" ?
Found: FALSE

Lookup: Hey, what did the test say about "O=C(CSc1nnc(Nc2ccccc2)s1)NN1C(=O)NC2(CCCCC2)C1=O" ?
Found: TRUE

Lookup: Hey, what did the test say about "CCc1ccc(NC(=O)[C@H]2CC=CC[C@H]2C(=O)O)cc1" ?
Found: FALSE

Lookup: Hey, what did the test say about "COc1ccc(-c2cc(=O)[nH][nH]2)cc1" ?
Found: FALSE

Lookup: Hey, what did the test say about "CC(C)c1ccc(NC(=O)[C@H]2CCCC[C@H]2C(=O)O)cc1" ?
Found: FALSE

Lookup: Hey, what did the test say about "O=c1cc(-c2ccc(Cl)c(Cl)c2)[nH][nH]1" ?
Found: FALSE

Lookup: Hey, what did the test say about "O=C(O)Cc1ccc(NC(=O)Nc2ccc(Br)cc2)cc1" ?
Found: FALSE

Lookup: Hey, what did the test say about "CCc1cc2cc(OC)ccc2nc1SCC(=O)Nc1cc(OC)c(OC)cc1C(=O)O" ?
Found: TRUE

Lookup: Hey, what did the test say about "O=C(Nc1cc(Cl)ccc1Cl)[C@H]1CC=CC[C@H]1C(=O)O" ?
Found: FALSE

Lookup: Hey, what did the test say about "CCc1cc2ccccc2nc1SCC(=O)Nc1cc(OC)c(OC)cc1C(=O)O" ?
Found: TRUE

----------
Experiment: malaria lysate leucine aminopeptidase inhibition – cell lysate, fluorescence, Plasmodium falciparum lysate, powder samples, late-stage follow-up (AID 492973)
Settings: P. falciparum cell lysate, H-Leu-NHMec fluorescence; at 5 µM
Active and inactive are the calls of the source.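 How the source made its calls: active means inhibition above 50% of the enzyme in parasite cell lysate; inactive means the rest.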
Could you please pick one outcome from this set? T (active), F (inactive)

Lookup: Hey, what did the test say about CCc1ccc(Nc2nnc(SC3CCOC3=O)s2)cc1 (stereo not given) ?
Found: F

Lookup: Hey, what did the test say about "Cc1cc(C(=O)COC(=O)c2ccc[nH]c2=O)c(C)n1-c1ccccc1" ?
Found: F

Lookup: Hey, what did the test say about "COc1cc(NC(=O)CSc2nc3cc(C)ccc3cc2C)c(C(=O)O)cc1OC" ?
Found: T

Lookup: Hey, what did the test say about "Cc1ccc(-n2c(C)cc(C(=O)COC(=O)c3ccc[nH]c3=O)c2C)cc1C" ?
Found: T

Lookup: Hey, what did the test say about "CCc1cc2ccc(C)cc2nc1SCC(=O)Nc1cc(OC)c(OC)cc1C(=O)O" ?
Found: T
